Kd reference
Molecular target: Tyrosine-protein kinase JAK2 (Homo sapiens, UniProt O60674, V617F)
Sequence (O60674 whole entry V617F): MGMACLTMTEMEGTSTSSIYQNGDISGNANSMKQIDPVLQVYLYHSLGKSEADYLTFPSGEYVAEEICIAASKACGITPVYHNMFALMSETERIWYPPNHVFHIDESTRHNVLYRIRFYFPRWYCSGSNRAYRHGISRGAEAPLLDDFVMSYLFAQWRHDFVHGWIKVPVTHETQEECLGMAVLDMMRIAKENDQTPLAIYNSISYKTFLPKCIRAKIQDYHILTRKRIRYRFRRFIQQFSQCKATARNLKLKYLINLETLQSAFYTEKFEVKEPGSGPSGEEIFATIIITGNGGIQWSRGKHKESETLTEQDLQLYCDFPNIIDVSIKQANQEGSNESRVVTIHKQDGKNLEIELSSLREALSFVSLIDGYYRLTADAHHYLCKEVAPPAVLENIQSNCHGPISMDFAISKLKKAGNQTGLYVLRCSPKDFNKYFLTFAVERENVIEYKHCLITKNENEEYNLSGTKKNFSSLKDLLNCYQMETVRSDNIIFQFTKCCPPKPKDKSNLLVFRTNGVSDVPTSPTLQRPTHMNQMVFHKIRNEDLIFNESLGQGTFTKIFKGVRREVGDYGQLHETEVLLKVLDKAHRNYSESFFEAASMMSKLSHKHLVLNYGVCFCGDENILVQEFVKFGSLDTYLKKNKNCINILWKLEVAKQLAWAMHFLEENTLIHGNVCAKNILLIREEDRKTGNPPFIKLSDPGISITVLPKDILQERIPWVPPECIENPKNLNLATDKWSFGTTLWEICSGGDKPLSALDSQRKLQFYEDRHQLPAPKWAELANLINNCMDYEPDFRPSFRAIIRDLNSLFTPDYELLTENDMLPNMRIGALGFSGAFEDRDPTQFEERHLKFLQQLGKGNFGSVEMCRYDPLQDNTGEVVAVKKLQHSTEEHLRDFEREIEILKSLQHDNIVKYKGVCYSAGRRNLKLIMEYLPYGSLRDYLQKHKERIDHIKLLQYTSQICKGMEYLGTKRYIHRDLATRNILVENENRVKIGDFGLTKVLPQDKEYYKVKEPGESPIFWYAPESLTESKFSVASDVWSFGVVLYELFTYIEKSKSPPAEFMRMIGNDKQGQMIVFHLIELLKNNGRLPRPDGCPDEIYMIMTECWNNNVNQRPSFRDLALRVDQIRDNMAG
Assay: biochemical
Description: Binding affinity to JAK2 JH2 V617F mutant (unknown origin) expressed in baculovirus infected Sf9 cells assessed as dissociation constant measured upto 30 mins in presence of tracer by competitive fluorescence polarization assay
readout: Kd (nM)

[[record]]
chemical_string = "CNC(=O)c1ccc(Nc2nc(N)n(C(=O)Nc3ccc(-c4cc(OCc5ccccc5)cc(C(=O)O)c4)cc3)n2)cc1"
system_tested = "Tyrosine-protein kinase JAK2 (Homo sapiens, UniProt O60674, V617F)"
units_of_measure = "nM"
numeric_value = 50

[[record]]
chemical_string = "CNC(=O)c1ccc(Nc2nc(N)n(C(=O)Nc3ccc(-c4ccc(OCc5ccccc5)c(C(=O)O)c4)cc3)n2)cc1"
system_tested = "Tyrosine-protein kinase JAK2 (Homo sapiens, UniProt O60674, V617F)"
units_of_measure = "nM"
numeric_value = 43

[[record]]
chemical_string = "Nc1nc(Nc2ccc(S(N)(=O)=O)cc2)nn1C(=O)Nc1ccc(-c2cc(OCc3ccccc3)cc(C(=O)O)c2)cc1"
system_tested = "Tyrosine-protein kinase JAK2 (Homo sapiens, UniProt O60674, V617F)"
units_of_measure = "nM"
numeric_value = 62

[[record]]
chemical_string = "Nc1nc(Nc2ccc(S(N)(=O)=O)cc2)nn1C(=O)Nc1ccc(-c2ccnc(C(=O)O)c2)cc1"
system_tested = "Tyrosine-protein kinase JAK2 (Homo sapiens, UniProt O60674, V617F)"
units_of_measure = "nM"
numeric_value = 131

